ASSAY_TARGET: T1, human LAIR1 extracellular domain (ECD) protein with 6 HIS tag at the C-terminus (human, UniProt Q6GTX8 22-165)
T1 construct: Produced recombinantly in HEK293 cells; the whole entry is named here; also called LAIR1 ECD; LAIR1-ECD
T1 chain: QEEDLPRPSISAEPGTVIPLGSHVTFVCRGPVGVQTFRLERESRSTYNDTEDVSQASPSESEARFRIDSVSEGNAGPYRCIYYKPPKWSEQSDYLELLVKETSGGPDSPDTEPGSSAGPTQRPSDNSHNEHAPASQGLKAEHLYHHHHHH
TEST_DETAILS: ELISA, LAIR1 ECD coated, mAb titrated, anti-rabbit HRP
RECORDED_ENDPOINT: EC50
Give the value; after it, write the unit.

Identify the reported EC50 for the following entry. LA-252 (antibody, V domains shown, Rabbit monoclonal IgG; Called a potential antagonist antibody) VH: EQSVEESGGRLVTPGTPLTLTCTASGFTISDYHMCWVRQAPGKGLEWIGLIRASHSTAYASWANGRFTISRTSTTVDLKITSPTSEDTATYFCARYGGSGIGCNLWGPGTLVTISS VL: ELVLTQTPASVSEPVGGTVTIKCQASQSIDSNLAWYQQKPGQPPKQLIYAVSNLASGVPSRFKGSGSGTEFTLTISDLECADAASYYCECTYYGNSYVGGFGGGTEVEIK 0.05 nM

Identify the reported EC50 for the following entry. LA-141 (antibody, V domains shown, Rabbit monoclonal IgG) VH: QSLEESGGRLVKPDESLTLTCTVSGFSLSSNAMSWVRQAPGKGLEWIGYIYGDGRTFYANWAKGRITISRTSTTVDLKMTSLRTEDTATYFCVKSLILWGPGTLVTISS VL: ELDMTQTPSPVSAAVGGTVTINCQSSHSVYNANQLYWYQQKPGQPPKLLIYDASTLASGVPSRFKGSGSGTQFTLTISGVQCDDAATYYCLGEYSGNIYVFGEGTEVEIN 0.05 nM
